tested on: LNCaP; test: Cytotoxicity against drug resistant human LNCaP cells assessed as inhibition of cell growth incubated for 72 hrs by CellTox Green cytotoxicity assay; format: functional, cell-based
RESULT_TYPE: IC50

{"columns": ["SMILES", "ASSAY_VALUE"],
 "data": [
  ["CCC/C=C\\c1ccccc1/C=C/C(=O)N[C@H](Cc1ccc(O)cc1)C(=O)N(C)[C@@H](Cc1ccc(OC)c(O)c1)C(=O)N(C)[C@@H](Cc1ccccc1)C(=O)OC[C@H]1NC(=O)CNC1=O", "> 10 µM"],
  ["CCC/C=C\\c1ccccc1/C=C/C(=O)N[C@H](Cc1ccc(O)cc1)C(=O)N(C)[C@@H](Cc1ccc(OC)c(O)c1Cl)C(=O)N(C)[C@@H](Cc1ccccc1)C(=O)OC[C@H]1NC(=O)CNC1=O", "> 10 µM"],
  ["CCC/C=C\\c1ccccc1/C=C/C(=O)N[C@H](Cc1ccc(O)cc1)C(=O)N(C)[C@@H](Cc1ccc(OC)c(O)c1Cl)C(=O)N(C)[C@@H](Cc1ccccc1)C(=O)O", "> 10 µM"]
]}

Every entry's value here was drawn from ChEMBL document CHEMBL5385954.
